# Tested on: Plasmodium falciparum
# assay-summary: ST_JUDE: Plasmodium falciparum K1 EC50 (uM) as measured by SYBR green dye
# Assay type: functional, organism-based
Catalogue of EC50 values
Answer format: numeric, µM implied, no suffix.

>>> experimental_result("CN1/C(=C/c2cccc[n+]2C)Sc2ccccc21")
0.389
>>> experimental_result("CC(C)(C)C(=O)N1CCN(c2ccc([N+](=O)[O-])c(NC3CC3)c2)CC1")
0.641
>>> experimental_result("CC(=O)N(C1=C(N(C)C)C(=O)c2ccccc2C1=O)c1ccc(I)cc1")
0.0458

Request the reported EC50 associated with Cc1cc(Nc2ccc(C)c(F)c2)n2nc(C)nc2n1
3.09

Reference source: ChEMBL document CHEMBL1154198
